Data origin: the supplement of paper PMC10811239

What bioluminescence was measured for each of the following?
- System: LEGO organoid PT (PTEN-/-; TP53-/-)
- assay.comment: bioluminescence (viable cell) signal fold change after vs before treatment, normalised to DMSO (ratio); higher = more tumour cell growth / less inhibition
- measurement.setup: 10 µM; treatment time 6 days
# respond with the number and nothing more

Query: Param item = COc1cc2c(cc1OC)[C@@H]1CC(=O)[C@@H](CC(C)C)CN1CC2.COc1cc2c(cc1OC)[C@H]1CC(=O)[C@H](CC(C)C)CN1CC2 [Tetrabenazine] ; retrieve measured bioluminescence.
Response: 0.657

Query: Param item = NCC(CC(=O)O)c1ccc(Cl)cc1 (stereo not drawn) [Baclofen] ; retrieve measured bioluminescence.
Response: 0.694

Query: Param item = Cl.Cn1c(CCCC(=O)O)nc2cc(N(CCCl)CCCl)ccc21 [Bendamustine hydrochloride] ; retrieve measured bioluminescence.
Response: 0.772

Query: Param item = CN[C@@H]1C[C@H]2O[C@@](C)([C@@H]1OC)n1c3ccccc3c3c4c(c5c6ccccc6n2c5c31)C(=O)NC4 [Staurosporine] ; retrieve measured bioluminescence.
Response: 0.0178

Query: Param item = NCC1(CC(=O)O)CCCCC1 [Gabapentin] ; retrieve measured bioluminescence.
Response: 1.08

Query: Param item = CC[C@@H](C(N)=O)N1CCCC1=O [Levetiracetam] ; retrieve measured bioluminescence.
Response: 0.803

Query: Param item = Cc1n[nH]cc1-c1cc2[nH]c([C@@H]3CC4CCN3CC4)nc(=O)c2s1 [Simurosertib] ; retrieve measured bioluminescence.
Response: 1.6

Query: Param item = CC(C)c1cccc(C(C)C)c1O [Propofol] ; retrieve measured bioluminescence.
Response: 1.34

* * *

- Test system: LEGO organoid PTCC (PTEN-/-; TP53-/-; CDKN2A-/-; CDKN2B-/-)
- assay.comment: bioluminescence (viable cell) signal fold change after vs before treatment, normalised to DMSO (ratio); higher = more tumour cell growth / less inhibition
- measurement.setup: 10 µM; treatment time 6 days
observable: bioluminescence
# respond with the number and nothing more

Query: Param item = Cl.Cn1c(CCCC(=O)O)nc2cc(N(CCCl)CCCl)ccc21 [Bendamustine hydrochloride] ; retrieve measured bioluminescence.
Response: 0.752

Query: Param item = CCC1(c2ccc(N)cc2)CCC(=O)NC1=O (stereo unspecified) [Aminoglutethimide] ; retrieve measured bioluminescence.
Response: 1.11

Query: Param item = "CC(C)c1cccc(C(C)C)c1O" ; retrieve measured bioluminescence.
Response: 0.675

Query: Param item = CCN(C)C(=O)Oc1cccc([C@H](C)N(C)C)c1.O=C(O)[C@H](O)[C@@H](O)C(=O)O [Rivastigmine tartrate] ; retrieve measured bioluminescence.
Response: 0.566

Query: Param item = "NCC1(CC(=O)O)CCCCC1" ; retrieve measured bioluminescence.
Response: 1.26

Query: Param item = "CCN(C)C(=O)Oc1cccc([C@H](C)N(C)C)c1" ; retrieve measured bioluminescence.
Response: 0.555

Query: Param item = "COc1cc2c(cc1OC)[C@@H]1CC(=O)[C@@H](CC(C)C)CN1CC2.COc1cc2c(cc1OC)[C@H]1CC(=O)[C@H](CC(C)C)CN1CC2" ; retrieve measured bioluminescence.
Response: 1.1

Query: Param item = NCC(CC(=O)O)c1ccc(Cl)cc1 (stereo unspecified) ; retrieve measured bioluminescence.
Response: 0.877

Query: Param item = "CN[C@@H]1C[C@H]2O[C@@](C)([C@@H]1OC)n1c3ccccc3c3c4c(c5c6ccccc6n2c5c31)C(=O)NC4" ; retrieve measured bioluminescence.
Response: 0

Query: Param item = Cc1cccc([C@H](C)c2cnc[nH]2)c1C.Cl [Dexmedetomidine HCl] ; retrieve measured bioluminescence.
Response: 1.39

Query: Param item = CCOC(=O)c1cncn1[C@H](C)c1ccccc1 [Etomidate] ; retrieve measured bioluminescence.
Response: 1.01

* * *

What bioluminescence was measured for each of the following?
- Tested on: LEGO organoid PTN (PTEN-/-; TP53-/-; NF1-/-)
- assay.comment: bioluminescence (viable cell) signal fold change after vs before treatment, normalised to DMSO (ratio); higher = more tumour cell growth / less inhibition
- measurement.setup: 10 µM; treatment time 6 days

Query: Param item = CCOC(=O)c1cncn1[C@H](C)c1ccccc1 [Etomidate] ; retrieve measured bioluminescence.
Response: 2.17

Query: Param item = Cl.Cn1c(CCCC(=O)O)nc2cc(N(CCCl)CCCl)ccc21 [Bendamustine hydrochloride] ; retrieve measured bioluminescence.
Response: 1.14

Query: Param item = "Cc1n[nH]cc1-c1cc2[nH]c([C@@H]3CC4CCN3CC4)nc(=O)c2s1" ; retrieve measured bioluminescence.
Response: 1.05

Query: Param item = CCC1(c2ccc(N)cc2)CCC(=O)NC1=O (stereo not drawn) [Aminoglutethimide] ; retrieve measured bioluminescence.
Response: 1.07

Query: Param item = CCN(C)C(=O)Oc1cccc([C@H](C)N(C)C)c1.O=C(O)[C@H](O)[C@@H](O)C(=O)O [Rivastigmine tartrate] ; retrieve measured bioluminescence.
Response: 1.33

Query: Param item = "O=C(O)CCCc1ccc(N(CCCl)CCCl)cc1" ; retrieve measured bioluminescence.
Response: 1.36

Query: Param item = "CN[C@@H]1C[C@H]2O[C@@](C)([C@@H]1OC)n1c3ccccc3c3c4c(c5c6ccccc6n2c5c31)C(=O)NC4" ; retrieve measured bioluminescence.
Response: 0

Query: Param item = Cc1cccc([C@H](C)c2cnc[nH]2)c1C.Cl [Dexmedetomidine HCl] ; retrieve measured bioluminescence.
Response: 0.581
